Documented EC50 across a set of compounds
- Test system: H4
- method description: Luminescence Cell-Based Dose Response HTS to Identify Activators of 5'UTR Stem-Loop Driven Prion Protein mRNA Translation in H4 Neuroglioblastoma Cells. [Related pubchem assays: 1829 (Project Summary), 1814 (Primary HTS)]
- Assay type: functional
- assay conditions: Homo sapiens
Active and inactive are the calls of the source. No stated cut-off is given here; in the data, actives have a measured EC50 and inactives only a lower limit.
endpoint label: EC50

{"compound": "O=C(N/N=C/c1ccccc1O)NC12CC3CC(CC(C3)C1)C2", "endpoint label": "EC50", "recorded measurement": "> 120 µM (not active)"}
{"compound": "Cc1ccccc1N(CC(=O)NC1CCCC1)C(=O)c1csnn1", "endpoint label": "EC50", "recorded measurement": "> 120 µM (not active)"}
{"compound": "Clc1nnc(N/N=C/c2ccccc2)c2ccccc12", "endpoint label": "EC50", "recorded measurement": "5.27 µM (active)"}
{"compound": "Cc1cc2oc(C(=O)Nc3c(C)n(C)n(-c4ccccc4)c3=O)c(C)c2cc1C", "endpoint label": "EC50", "recorded measurement": "> 120 µM (not active)"}
{"compound": "Cc1ccc(N/C([S-])=C(/C(=O)c2ccc(C)c([N+](=O)[O-])c2)[n+]2ccccc2)cc1C", "endpoint label": "EC50", "recorded measurement": "46.6 µM (active)"}
{"compound": "CCN(CC)CCN1C(=O)C(O)=C(C(=O)c2ccc(OC(C)C)cc2)C1c1cccs1 (stereo unspecified)", "endpoint label": "EC50", "recorded measurement": "35 µM (active)"}
